- test description: Oral bioavailability in cynomolgus monkey at 2 mg/kg
- Type: ADME, organism-based, Macaca fascicularis
- measurement parameters: in vivo
assay endpoint: bioavailability (%)
Report only the number, with the unit % understood.

Please look up its bioavailability: CC(C)(O)C(=O)N[C@@H]1CC[C@@]2(S(=O)(=O)c3ccc(F)cc3)c3ccc(C(F)(C(F)(F)F)C(F)(F)F)cc3CC[C@@H]12
75

====

- system under test: Nuclear receptor ROR-gamma (Homo sapiens, UniProt P51449)
- Sequence (P51449 whole entry, the tested form may be a part): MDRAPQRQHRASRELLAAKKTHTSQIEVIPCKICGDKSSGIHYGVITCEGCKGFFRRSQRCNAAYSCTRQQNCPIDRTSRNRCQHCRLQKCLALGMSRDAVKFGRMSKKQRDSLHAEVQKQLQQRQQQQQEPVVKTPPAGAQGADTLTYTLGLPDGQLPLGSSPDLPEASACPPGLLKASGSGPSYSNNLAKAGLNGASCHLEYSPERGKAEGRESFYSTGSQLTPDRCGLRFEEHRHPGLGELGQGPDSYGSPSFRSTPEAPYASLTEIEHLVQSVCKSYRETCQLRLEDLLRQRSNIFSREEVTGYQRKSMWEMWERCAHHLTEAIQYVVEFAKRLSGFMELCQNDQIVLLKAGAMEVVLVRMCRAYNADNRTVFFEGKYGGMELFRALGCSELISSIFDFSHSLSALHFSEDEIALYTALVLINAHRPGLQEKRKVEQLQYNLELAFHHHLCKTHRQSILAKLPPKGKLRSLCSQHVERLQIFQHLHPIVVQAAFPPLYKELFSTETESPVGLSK
- test description: Inverse agonist activity at recombinant full-length human Gal4-fused RORgammat expressed in human Jurkat cells incubated for 18 hrs by steady-glo luciferase reporter gene assay
- Assay type: cell-based
assay endpoint: EC50 (µM)
Report only the number, with the unit µM understood.

Examples with their reported EC50 follow.
1) [2H]C([2H])([2H])N1C(=O)C(O)CC1C(=O)N[C@@H]1CC[C@@]2(S(=O)(=O)c3ccc(F)cc3)c3ccc(C(F)(C(F)(F)F)C(F)(F)F)cc3CC[C@@H]12 (single isomer, unassigned): 0.0123
2) CC(C)(N)C(=O)N[C@@H]1CC[C@@]2(S(=O)(=O)c3ccc(F)cc3)c3ccc(C(F)(C(F)(F)F)C(F)(F)F)cc3CC[C@@H]12: 0.03
3) CS(=O)(=O)N[C@@H]1CC[C@@]2(S(=O)(=O)c3ccc(F)cc3)c3ccc(C(F)(C(F)(F)F)C(F)(F)F)cc3CC[C@@H]12: 0.0073

Please look up its EC50: CC(C)(C(=O)N[C@@H]1CC[C@@]2(S(=O)(=O)c3ccc(F)cc3)c3ccc(C(F)(C(F)(F)F)C(F)(F)F)cc3CC[C@@H]12)N1CCNCC1
0.063

Next molecule up: CN(C(=O)C(C)(C)O)[C@@H]1CC[C@@]2(S(=O)(=O)c3ccc(F)cc3)c3ccc(C(F)(C(F)(F)F)C(F)(F)F)cc3CC[C@@H]12
0.045
